test: MRP1 drug-resistance reversers in H69AR cells – cell-based, doxorubicin co-treatment, pilot screen (AID 601); details: H69AR cells + 2 uM doxorubicin, CellTiter-Glo, 72 h; at 10 µM; hits give high values
What differential viability (reversal) was measured for each of the following?
Give the value, in units of %, as a plain number.

What value of differential viability (reversal) has been recorded for this entry: `NC(=O)CSP(=O)(c1ccccc1)c1ccccc1` 10.1

What value of differential viability (reversal) has been recorded for this entry: `Cc1ccc(-n2c(O)c(C=NCCN3CCOCC3)c(=O)[nH]c2=O)cc1` 8.65

What value of differential viability (reversal) has been recorded for this entry: `CCN1CCN(c2ncnc3ccc(Br)cc23)CC1` -8.96

What value of differential viability (reversal) has been recorded for this entry: O=C1CC(N2CCC(n3c(=O)[nH]c4ccccc43)CC2)C(=O)N1c1ccc(F)cc1 (centres undefined) 3.01

What value of differential viability (reversal) has been recorded for this entry: `COc1ccc(C(=O)C(C)(C)NO)cc1` -2.28

What value of differential viability (reversal) has been recorded for this entry: C#CCN(C)C(C)Cc1ccccc1 (centres undefined) -5.18

What value of differential viability (reversal) has been recorded for this entry: CNCC(O)c1ccc(O)cc1 (centres undefined) 15.7

What value of differential viability (reversal) has been recorded for this entry: `O=c1c2ccccc2[se]n1-c1ccccc1` 2.39

What value of differential viability (reversal) has been recorded for this entry: `COc1ccc(OC)c([C@@H](O)[C@H](C)NC(C)(C)C)c1` -0.98

What value of differential viability (reversal) has been recorded for this entry: O=C1C2CCCN2C(c2ccc(Cl)c(Cl)c2)N1c1ccccn1 (centres undefined) 11.4

What value of differential viability (reversal) has been recorded for this entry: `COc1ccc(CCn2c(O)c(C=NCc3cccnc3)c(=O)[nH]c2=O)cc1OC` 1.12

What value of differential viability (reversal) has been recorded for this entry: `NCCc1ccc(O)cc1` 4.17

What value of differential viability (reversal) has been recorded for this entry: `CCCCOc1ccc(CN2CCN(CCO)CC2)cc1` 12.2

What value of differential viability (reversal) has been recorded for this entry: CCCCn1c(O)c(C=NC2CCCCC2N)c(=O)[nH]c1=O (centres undefined) 4.94

What value of differential viability (reversal) has been recorded for this entry: `CN1CCC(N(C)c2ncnc3ccc(Br)cc23)CC1` -25.8

What value of differential viability (reversal) has been recorded for this entry: `Cc1ccc(S(=O)(=O)Cc2ccc(C(=O)N3CCC4(CC3)OCCO4)o2)cc1` -3.13

What value of differential viability (reversal) has been recorded for this entry: `Cn1c(C(=O)N2CCC3(CC2)OCCO3)cc2c(=O)n(C)c3ccccc3c21` -5.79

What value of differential viability (reversal) has been recorded for this entry: CN(C)[C@@H]1C(=O)C(C(N)=O)=C(O)[C@@]2(O)C(=O)C3=C(O)c4c(O)ccc(Cl)c4[C@@](C)(O)C3C[C@@H]12 (some centres undefined) 2.32

What value of differential viability (reversal) has been recorded for this entry: `O=C(CCCN1CCC2(CC1)C(=O)NCN2c1ccccc1)c1ccc(F)cc1` -9.21

What value of differential viability (reversal) has been recorded for this entry: CC(C)(C)C(O)C(Oc1ccc(Cl)cc1)n1cncn1 (centres undefined) 5.54

What value of differential viability (reversal) has been recorded for this entry: CC#CP(=O)(OCC)C(O)(c1ccccc1)C(F)(F)F (centres undefined) 14.4

What value of differential viability (reversal) has been recorded for this entry: `COc1ccc(CC[n+]2cc(/N=C(\C)[O-])on2)cc1OC` -3.11

What value of differential viability (reversal) has been recorded for this entry: `Cc1ccc(C)c(NC2=NCCCS2)c1` 11.3

What value of differential viability (reversal) has been recorded for this entry: `CCOc1ccc(-n2c(O)c(C=NCCN3CCNCC3)c(=O)[nH]c2=O)cc1` -4.71
